All values here come from patent US11793849B2.

tested on: MDRPA; test: MIC determination, microdilution broth method; conditions: Pseudomonas aeruginosa, read-out: MIC (single use), strain P2; EA=P. clypearia 10% ethanol extract
measured-parameter: MIC (µg/mL)
Value expressed in µg/mL; do not type the unit.

[[record]]
molecule = "NCC[C@H](O)C(=O)N[C@@H]1C[C@H](N)[C@@H](O[C@H]2O[C@H](CN)[C@@H](O)[C@H](O)[C@H]2O)[C@H](O)[C@H]1O[C@H]1O[C@H](CO)[C@@H](O)[C@H](N)[C@H]1O [AMK, Amikacin]"
measured_parameter = "MIC"
recorded_value = 1

[[record]]
molecule = "CCN1CCN(C(=O)N[C@@H](C(=O)N[C@@H]2C(=O)N3C(C(=O)O)=C(CSc4nnnn4C)CS[C@H]23)c2ccc(O)cc2)C(=O)C1=O [CFP, Cefoperazone]"
measured_parameter = "MIC"
recorded_value = 256

[[record]]
molecule = "C[C@@H](O)[C@H]1C(=O)N2C(C(=O)O)=C(SCCN=CN)C[C@H]12 [IMP, imipenem]"
measured_parameter = "MIC"
recorded_value = 64

[[record]]
molecule = "CC(C)(O/N=C(\\C(=O)N[C@@H]1C(=O)N2C(C(=O)[O-])=C(C[n+]3ccccc3)CS[C@H]12)c1csc(N)n1)C(=O)O [CAZ, Ceftazidime]"
measured_parameter = "MIC"
recorded_value = 64


Query molecule follows.
The value of MIC measured for the molecule C[C@H]1COc2c(N3CCN(C)CC3)c(F)cc3c(=O)c(C(=O)O)cn1c23 [LVX, Levofloxacin] turned out to be 4

* * *

test system: MDRAB; experiment: Checkerboard assay (combined-use MIC, FIC); format: cell-based, Acinetobacter baumannii; settings: 20 MDRABs; antibiotic with 95% ethanol extract
measured-parameter: reduction of the antibiotic's MIC50 vs single use

Observe how each entry below is paired with its result.
[[record]]
given_smiles = "CC(C)(O/N=C(\\C(=O)N[C@@H]1C(=O)N2C(C(=O)[O-])=C(C[n+]3ccccc3)CS[C@H]12)c1csc(N)n1)C(=O)O"
recorded_value = "75%"

[[record]]
given_smiles = "C[C@H]1COc2c(N3CCN(C)CC3)c(F)cc3c(=O)c(C(=O)O)cn1c23"
recorded_value = "50%"

[[record]]
given_smiles = "CN(C)[C@@H]1C(O)=C(C(N)=O)C(=O)[C@@]2(O)C(O)=C3C(=O)c4c(O)cccc4[C@@](C)(O)[C@H]3C[C@@H]12"
recorded_value = "87.5%"


The value of reduction of the antibiotic's MIC50 vs single use measured for the compound C[C@@H](O)[C@H]1C(=O)N2C(C(=O)O)=C(SCCN=CN)C[C@H]12 turned out to be 75%

* * *

tested on: MDRPA; test: MIC determination, microdilution broth method;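 further: broth microdilution per NCCLS recommendations, testing Pithecellobium clypearia water or ethanol extracts against multidrug-resistant Pseudomonas aeruginosa, with MIC50 and MIC90 derived statistically from individual MICs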; conditions: Pseudomonas aeruginosa, read-out: MIC (single use), strain P5; EA=P. clypearia water extract
Documented MIC across a set of compounds
Just the number in µg/mL, nothing appended.

The examples below pair each entry with its known result.
[[record]]
compound = "CC(C)(O/N=C(\\C(=O)N[C@@H]1C(=O)N2C(C(=O)[O-])=C(C[n+]3ccccc3)CS[C@H]12)c1csc(N)n1)C(=O)O [CAZ, Ceftazidime]"
study_target = "MDRPA"
unit_of_measure = "µg/mL"
recorded_value = 64

[[record]]
compound = "C[C@H]1COc2c(N3CCN(C)CC3)c(F)cc3c(=O)c(C(=O)O)cn1c23 [LVX, Levofloxacin]"
study_target = "MDRPA"
unit_of_measure = "µg/mL"
recorded_value = 1


Entry C[C@@H](O)[C@H]1C(=O)N2C(C(=O)O)=C(SCCN=CN)C[C@H]12 [IMP, imipenem] — recorded MIC = 64

The reported MIC of the compound NCC[C@H](O)C(=O)N[C@@H]1C[C@H](N)[C@@H](O[C@H]2O[C@H](CN)[C@@H](O)[C@H](O)[C@H]2O)[C@H](O)[C@H]1O[C@H]1O[C@H](CO)[C@@H](O)[C@H](N)[C@H]1O [AMK, Amikacin] was 2

Recorded MIC (compound CCN1CCN(C(=O)N[C@@H](C(=O)N[C@@H]2C(=O)N3C(C(=O)O)=C(CSc4nnnn4C)CS[C@H]23)c2ccc(O)cc2)C(=O)C1=O [CFP, Cefoperazone] ): 512
